- assay.info: Binding affinity to synthetic telomere 23 parallel G-quadruplex DNA assessed as change in melting temperature at 4 mol equiv in presence of 100 mM KCl buffer by circular dichroism spectroscopic analysis
ΔTm by entry:
measured.attribute: ΔTm (°C)

[[record]]
record_smiles = "Br.O=Cc1c(-c2ccccc2)nc2n1ccc1nc(-c3ccccc3)c(/C=N/NC3=NCCN3)n12"
sign_qualifier = "="
measured_value = 9.1

[[record]]
record_smiles = "N=C(N)N/N=C/c1c(-c2ccccc2)nc2ccn3c(/C=N/N=C(N)N)c(-c4ccccc4)nc3n12"
sign_qualifier = ">"
measured_value = 20

[[record]]
record_smiles = "CN1C(=C2\\C(=N\\Nc3ccccn3)c3ccccc3N2C)/C(=N/Nc2ccccn2)c2ccccc21"
sign_qualifier = "="
measured_value = 4

[[record]]
record_smiles = "Cn1c(Cl)c(/C=N/NC(=N)N)c2ccc(/C=N/NC(=N)N)cc21"
sign_qualifier = ">"
measured_value = 20

[[record]]
record_smiles = "Cn1c(Cl)c(/C=N/NC(=N)N)c2cc3c(/C=N/NC(=N)N)c(Cl)n(C)c3cc21"
sign_qualifier = ">"
measured_value = 20


====

- assay.info: Binding affinity to synthetic c-KIT1 G-quadruplex DNA assessed as change in melting temperature at 4 mol equiv in presence of 100 mM KCl buffer by circular dichroism spectroscopic analysis
So basically: is ΔTm under 2 °C? Then fulfilled. Not under? Then not fulfilled.

[[record]]
record_smiles = "Cn1c(Cl)c(/C=N/NC(=N)N)c2cc3c(/C=N/NC(=N)N)c(Cl)n(C)c3cc21"
cat = "not fulfilled"

[[record]]
record_smiles = "Br.O=Cc1c(-c2ccccc2)nc2n1ccc1nc(-c3ccccc3)c(/C=N/NC3=NCCN3)n12"
cat = "not fulfilled"

[[record]]
record_smiles = "N=C(N)N/N=C/c1c(-c2ccccc2)nc2ccn3c(/C=N/N=C(N)N)c(-c4ccccc4)nc3n12"
cat = "not fulfilled"

[[record]]
record_smiles = "N=C(N)N/N=C/c1ccc2c(/C=N/NC(=N)N)c(Cl)n(-c3ccccc3)c2c1"
cat = "not fulfilled"

[[record]]
record_smiles = "C(=N\\Nc1ccccn1)/c1c(-c2ccccc2)nc2n1ccc1nc(-c3ccccc3)c(/C=N/Nc3ccccn3)n12"
cat = "fulfilled"

[[record]]
record_smiles = "N=C(N)N/N=C/c1c(-c2ccsc2)nc2n1ccc1nc(-c3ccsc3)c(/C=N/NC(=N)N)n12"
cat = "not fulfilled"

[[record]]
record_smiles = "C(=N\\NC1=NCCN1)/c1c(-c2ccccc2)nc2n1ccc1nc(-c3ccccc3)c(/C=N/NC3=NCCN3)n12"
cat = "fulfilled"

[[record]]
record_smiles = "CN1C(=C2\\C(=N\\NC(=N)N)c3ccccc3N2C)/C(=N/NC(=N)N)c2ccccc21"
cat = "fulfilled"

[[record]]
record_smiles = "Cn1c(Cl)c(/C=N/NC(=N)N)c2ccc(/C=N/NC(=N)N)cc21"
cat = "not fulfilled"

[[record]]
record_smiles = "CN1C(=C2\\C(=N\\Nc3ccccn3)c3ccccc3N2C)/C(=N/Nc2ccccn2)c2ccccc21"
cat = "fulfilled"


====

- assay.info: Binding affinity to synthetic c-KIT2 G-quadruplex DNA assessed as change in melting temperature at 4 mol equiv in presence of 20 mM KCl buffer by circular dichroism spectroscopic analysis
measured.attribute: ΔTm (°C)

[[record]]
record_smiles = "C(=N\\NC1=NCCN1)/c1c(-c2ccccc2)nc2n1ccc1nc(-c3ccccc3)c(/C=N/NC3=NCCN3)n12"
reading_unit = "°C"
sign_qualifier = ">"
measured_value = 20

[[record]]
record_smiles = "CN1C(=C2\\C(=N\\NC(=N)N)c3ccccc3N2C)/C(=N/NC(=N)N)c2ccccc21"
reading_unit = "°C"
sign_qualifier = "="
measured_value = 8.2

[[record]]
record_smiles = "N=C(N)N/N=C/c1c(-c2ccsc2)nc2n1ccc1nc(-c3ccsc3)c(/C=N/NC(=N)N)n12"
reading_unit = "°C"
sign_qualifier = ">"
measured_value = 20

[[record]]
record_smiles = "Br.O=Cc1c(-c2ccccc2)nc2n1ccc1nc(-c3ccccc3)c(/C=N/NC3=NCCN3)n12"
reading_unit = "°C"
sign_qualifier = "="
measured_value = 9.5

[[record]]
record_smiles = "Cn1c(Cl)c(/C=N/NC(=N)N)c2cc3c(/C=N/NC(=N)N)c(Cl)n(C)c3cc21"
reading_unit = "°C"
sign_qualifier = ">"
measured_value = 15

[[record]]
record_smiles = "C(=N\\Nc1ccccn1)/c1c(-c2ccccc2)nc2n1ccc1nc(-c3ccccc3)c(/C=N/Nc3ccccn3)n12"
reading_unit = "°C"
sign_qualifier = "="
measured_value = 0

[[record]]
record_smiles = "Cn1c(Cl)c(/C=N/NC(=N)N)c2ccc(/C=N/NC(=N)N)cc21"
reading_unit = "°C"
sign_qualifier = ">"
measured_value = 20

[[record]]
record_smiles = "N=C(N)N/N=C/c1ccc2c(/C=N/NC(=N)N)c(Cl)n(-c3ccccc3)c2c1"
reading_unit = "°C"
sign_qualifier = ">"
measured_value = 15

[[record]]
record_smiles = "CN1C(=C2\\C(=N\\Nc3ccccn3)c3ccccc3N2C)/C(=N/Nc2ccccn2)c2ccccc21"
reading_unit = "°C"
sign_qualifier = "="
measured_value = 2

[[record]]
record_smiles = "N=C(N)N/N=C/c1c(-c2ccccc2)nc2ccn3c(/C=N/N=C(N)N)c(-c4ccccc4)nc3n12"
reading_unit = "°C"
sign_qualifier = ">"
measured_value = 20


Hey, just so you know, these numbers are from ChEMBL document CHEMBL3826876.
